system: S. aureus MSSA476; construct: MSSA476; parameters: species or system S. aureus MSSA476 (TSB) or V. cholerae SAD30 (LB); 384-well bacterial growth screen at 25 uM, OD600 relative to DMSO control; details: relative growth, OD600, TSB; 25 µM; inhibitor
The whole screen tested about 3,200 compounds, of which about 75 (2%) showed an effect of 50% or more. This excerpt belongs to a sample that is enriched for strong results.
// assign True if % of control remaining falls strictly below 90%, else False (ties count as False)

Strictly below 90% in % of control remaining? Cc1ccc(C=C(C#N)C(=O)Nc2ccccc2C(=O)O)s1 True

Strictly below 90% in % of control remaining? COCC(NC(=O)C(C)Cl)c1ccccn1 (centres unmarked) False

Strictly below 90% in % of control remaining? N#CC(=Cc1cccc(F)c1)C(=O)Nc1cc(Cl)ccc1Cl False

Strictly below 90% in % of control remaining? C=CC(=O)N(C)CC(=O)Nc1ccc(N2C[C@@H](C)O[C@@H](C)C2)cc1 False

Strictly below 90% in % of control remaining? CC1CCN(C(=O)CCl)c2cc(Cl)ccc2S1 (centres unmarked) False

More entries:
Strictly below 90% in % of control remaining? Cc1nn(C)c(C)c1NC(=O)C(C)Cl (centres unmarked) True

Strictly below 90% in % of control remaining? C=CC(=O)NC(Cc1ccccc1)c1ccccn1 (centres unmarked) False

Strictly below 90% in % of control remaining? Cc1ccc(C=C(C#N)C(=O)Nc2ccccc2Cl)s1 True

Strictly below 90% in % of control remaining? CC(c1ccc(C(F)(F)F)cc1F)N(C)C(=O)CCl (centres unmarked) False
